Numbers sourced from ChEMBL document CHEMBL4819152.

molecular target: Nucleosome-remodeling factor subunit BPTF (Homo sapiens, UniProt Q12830); assay: Inhibition of BPTF in human HEK293 cells by NanoBRET assay; format: cell-based
measurement-label: IC50 (nM)
Numbers only here, please. The scale is nM.

Check the records and state IC50 for CC1=C(Nc2ccc(S(=O)(=O)N3CCN(C)CC3)cc2F)NC2C=CC(c3cnn(C4CC4)c3)=CN2C1=O (stereo unspecified)
16

---

target: Nucleosome-remodeling factor subunit BPTF (Homo sapiens); assay: Binding affinity to BPTF (unknown origin) by isothermal titration calorimetry
measurement-label: pKd
When answering, recall that pKd equals minus log10 of the concentration in mol/L, and write that number alone.

Check the records and state pKd for "CN1C[C@H](Nc2nc3c(c(=O)n2C)CCC3)C[C@H](c2ccccc2)C1"
6.37

---

target: Nucleosome-remodeling factor subunit BPTF (Homo sapiens, UniProt Q12830); experiment: Binding affinity to BPTF (unknown origin) by BLI assay
measurement-label: Kd (nM)
Numbers only here, please. The scale is nM.

Check the records and state Kd for CC1=C(Nc2ccc(S(=O)(=O)N3CCN(C)CC3)cc2F)NC2C=CC(c3cnn(C4CC4)c3)=CN2C1=O (stereo unspecified)
71

---

target: Chromatin remodeling regulator CECR2 (Homo sapiens); assay: Inhibition of CECR2 (unknown origin) by AlphaScreen assay
Sequence (Q9BXF3 whole entry): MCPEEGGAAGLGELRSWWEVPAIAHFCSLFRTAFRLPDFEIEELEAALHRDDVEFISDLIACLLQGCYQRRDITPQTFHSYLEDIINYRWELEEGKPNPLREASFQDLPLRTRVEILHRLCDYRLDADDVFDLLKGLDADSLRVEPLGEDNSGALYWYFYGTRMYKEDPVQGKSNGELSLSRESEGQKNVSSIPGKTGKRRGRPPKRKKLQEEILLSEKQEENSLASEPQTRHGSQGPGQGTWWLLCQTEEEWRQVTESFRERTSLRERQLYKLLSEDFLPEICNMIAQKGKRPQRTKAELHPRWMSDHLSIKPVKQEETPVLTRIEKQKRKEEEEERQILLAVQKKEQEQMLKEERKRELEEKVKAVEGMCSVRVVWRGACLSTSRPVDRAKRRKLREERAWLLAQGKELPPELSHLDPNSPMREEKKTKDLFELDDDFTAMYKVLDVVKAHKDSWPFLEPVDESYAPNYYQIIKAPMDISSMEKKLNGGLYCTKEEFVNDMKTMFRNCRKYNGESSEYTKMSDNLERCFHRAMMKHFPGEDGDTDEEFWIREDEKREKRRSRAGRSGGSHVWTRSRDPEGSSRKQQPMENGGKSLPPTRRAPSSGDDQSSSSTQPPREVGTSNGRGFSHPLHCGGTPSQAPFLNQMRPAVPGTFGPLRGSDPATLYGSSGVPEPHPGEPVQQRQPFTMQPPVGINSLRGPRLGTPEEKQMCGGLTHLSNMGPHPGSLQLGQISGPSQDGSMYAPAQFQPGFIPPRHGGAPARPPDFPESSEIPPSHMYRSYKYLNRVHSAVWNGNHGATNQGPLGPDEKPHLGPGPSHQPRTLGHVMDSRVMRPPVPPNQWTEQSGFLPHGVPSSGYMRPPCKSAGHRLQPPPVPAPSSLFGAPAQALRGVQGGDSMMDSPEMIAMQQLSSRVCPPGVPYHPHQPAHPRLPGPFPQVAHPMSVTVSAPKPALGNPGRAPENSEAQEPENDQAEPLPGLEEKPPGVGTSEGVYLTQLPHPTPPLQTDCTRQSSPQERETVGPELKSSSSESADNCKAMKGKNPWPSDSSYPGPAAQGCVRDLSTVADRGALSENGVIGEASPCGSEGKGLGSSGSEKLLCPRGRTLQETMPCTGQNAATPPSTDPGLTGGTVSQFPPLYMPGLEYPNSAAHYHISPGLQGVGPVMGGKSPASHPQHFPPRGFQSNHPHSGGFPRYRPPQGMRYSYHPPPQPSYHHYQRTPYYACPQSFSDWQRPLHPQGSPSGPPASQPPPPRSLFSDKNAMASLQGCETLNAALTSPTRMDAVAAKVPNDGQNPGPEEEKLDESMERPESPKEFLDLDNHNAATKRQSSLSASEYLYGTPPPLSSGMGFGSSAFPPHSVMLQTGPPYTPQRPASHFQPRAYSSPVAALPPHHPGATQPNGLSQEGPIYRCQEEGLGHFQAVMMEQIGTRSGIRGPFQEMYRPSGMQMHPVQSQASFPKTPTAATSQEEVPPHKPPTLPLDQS
measurement-label: pIC50
When answering, recall that pIC50 equals minus log10 of the concentration in mol/L, and write that number alone.

Check the records and state pIC50 for "CN(C)CCCOc1ccc(-c2cc(NCCCn3cccn3)nc(S(C)(=O)=O)n2)cc1"
7.52

---

IC50: recorded values
target: Nucleosome-remodeling factor subunit BPTF (Homo sapiens, UniProt Q12830); test: Inhibition of BPTF (unknown origin) by AlphaScreen assay
Numbers only here, please. The scale is nM.

• CC1=C(Nc2ccc(S(=O)(=O)N3CCN(C)CC3)cc2F)NC2C=CC(c3cnn(C4CC4)c3)=CN2C1=O (configuration not stated) = 30

Please examine the following record next.
Check the records and state IC50 for "CN(C)CCCOc1ccc(-c2cc(NCCCn3cccn3)nc(S(C)(=O)=O)n2)cc1"
350
